Sequence of the target: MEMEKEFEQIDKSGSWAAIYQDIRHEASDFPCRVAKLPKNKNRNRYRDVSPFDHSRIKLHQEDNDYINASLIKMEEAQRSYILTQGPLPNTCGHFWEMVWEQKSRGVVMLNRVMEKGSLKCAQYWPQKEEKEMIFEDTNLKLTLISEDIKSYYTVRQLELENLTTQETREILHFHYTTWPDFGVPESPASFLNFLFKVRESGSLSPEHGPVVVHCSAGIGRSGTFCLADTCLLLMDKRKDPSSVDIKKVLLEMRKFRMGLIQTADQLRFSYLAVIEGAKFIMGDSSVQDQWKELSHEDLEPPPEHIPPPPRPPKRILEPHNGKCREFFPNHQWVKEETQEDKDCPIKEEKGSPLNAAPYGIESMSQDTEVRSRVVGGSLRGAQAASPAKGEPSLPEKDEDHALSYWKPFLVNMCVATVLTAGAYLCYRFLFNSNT
assayReadout: pIC50
By convention, pIC50 is the negative base-10 log of a molar concentration.

-- ask Need pIC50, item `CC(C)=CC[C@H](O)C1=CC(=O)c2c(O)ccc(O)c2C1=O`
-- reply 4.71
